Cited source: paper PMC6036174

Tested on: G. mellonella larvae
Experiment Summary: in vivo toxicity in Galleria mellonella larvae
Stated Conditions: 72 h post-injection; 100 μg per larvae (333.33 mg/kg)
Measured Metric: % Mortality (%)

compound="O.O.O.O.O.O.O.O.O.O.O.O.O.O.O.O.O=C([O-])c1cccc(C(=O)[O-])c1.O=C([O-])c1cccc(C(=O)[O-])c1.[Mn+2].[Mn+2].c1cnc2c(c1)ccc1cccnc12.c1cnc2c(c1)ccc1cccnc12.c1cnc2c(c1)ccc1cccnc12.c1cnc2c(c1)ccc1cccnc12.c1cnc2c(c1)ccc1cccnc12 [compound 8, {[Mn(phen)2(H2O)2]}2(isoph)2(phen)·12H2O]" measured_metric="% Mortality" measured_result=90
compound="O.O.O.O.O=C([O-])c1cccc(C(=O)[O-])c1.O=C([O-])c1cccc(C(=O)[O-])c1.[Mn+2].[Mn+2].c1cnc2c(c1)ccc1cccnc12.c1cnc2c(c1)ccc1cccnc12.c1cnc2c(c1)ccc1cccnc12 [compound 7, [Mn2(isoph)2(phen)3]·4H2O]" measured_metric="% Mortality" measured_result=90
compound="c1cnc2c(c1)ccc1cccnc12 [phen, 1,10-phenanthroline, reference compound]" measured_metric="% Mortality" measured_result=100
compound="O.O.O=C([O-])c1ccccc1C(=O)[O-].[Mn+2].c1cnc2c(c1)ccc1cccnc12 [compound 5, [Mn(ph)(phen)(H2O)2]]" measured_metric="% Mortality" measured_result=90
compound="O.O.O.O.O.O=C([O-])c1ccc(C(=O)[O-])cc1.[Mn+2].c1cnc2c(c1)ccc1cccnc12.c1cnc2c(c1)ccc1cccnc12 [compound 9, [Mn(tereph)(phen)2]·5H2O]" measured_metric="% Mortality" measured_result=90
compound="O.O.O.O.O.O=C([O-])c1ccccc1C(=O)[O-].[Mn+2].c1cnc2c(c1)ccc1cccnc12.c1cnc2c(c1)ccc1cccnc12 [compound 6, [Mn(ph)(phen)2(H2O)]·4H2O]" measured_metric="% Mortality" measured_result=90

---

System: G. mellonella larvae
Experiment Summary: in vivo toxicity in Galleria mellonella larvae
Stated Conditions: rank, 1st = best tolerated; from Table 2
Measured Metric: In vivo G. mellonella tolerance order in μmol (th)

compound="O.O.O=C([O-])c1ccccc1C(=O)[O-].[Mn+2].c1cnc2c(c1)ccc1cccnc12 [compound 5, [Mn(ph)(phen)(H2O)2]]" measured_result=6
compound="O.O.O.O.O=C([O-])c1cccc(C(=O)[O-])c1.O=C([O-])c1cccc(C(=O)[O-])c1.[Mn+2].[Mn+2].c1cnc2c(c1)ccc1cccnc12.c1cnc2c(c1)ccc1cccnc12.c1cnc2c(c1)ccc1cccnc12 [compound 7, [Mn2(isoph)2(phen)3]·4H2O]" measured_result=4
compound="O.O.O.O.O.O.O.O.O.O.O.O.O.O.O.O.O=C([O-])c1cccc(C(=O)[O-])c1.O=C([O-])c1cccc(C(=O)[O-])c1.[Mn+2].[Mn+2].c1cnc2c(c1)ccc1cccnc12.c1cnc2c(c1)ccc1cccnc12.c1cnc2c(c1)ccc1cccnc12.c1cnc2c(c1)ccc1cccnc12.c1cnc2c(c1)ccc1cccnc12 [compound 8, {[Mn(phen)2(H2O)2]}2(isoph)2(phen)·12H2O]" measured_result=9
compound="c1cnc2c(c1)ccc1cccnc12 [phen, 1,10-phenanthroline, reference compound]" measured_result=5
compound="O.O.O.O.O.O=C([O-])c1ccccc1C(=O)[O-].[Mn+2].c1cnc2c(c1)ccc1cccnc12.c1cnc2c(c1)ccc1cccnc12 [compound 6, [Mn(ph)(phen)2(H2O)]·4H2O]" measured_result=7
compound="O.O.O.O.O.O=C([O-])c1ccc(C(=O)[O-])cc1.[Mn+2].c1cnc2c(c1)ccc1cccnc12.c1cnc2c(c1)ccc1cccnc12 [compound 9, [Mn(tereph)(phen)2]·5H2O]" measured_result=7

---

Tested on: VERO (ATCC CCL-81) normal epithelial cells
Experiment Summary: VERO cell cytotoxicity (resazurin)
Stated Conditions: read-out: Cytotoxicity IC50 VERO cells; 24 h incubation; called CC50 in methods
As shown below, each of these compounds has a reported IC50 value.
Measured Metric: IC50 (µM)

compound="O.O.O=C([O-])c1ccccc1C(=O)[O-].[Mn+2].c1cnc2c(c1)ccc1cccnc12 [compound 5, [Mn(ph)(phen)(H2O)2]]" unit=µM measured_result=35.8
compound="O.O.O.O.O.O=C([O-])c1ccccc1C(=O)[O-].[Mn+2].c1cnc2c(c1)ccc1cccnc12.c1cnc2c(c1)ccc1cccnc12 [compound 6, [Mn(ph)(phen)2(H2O)]·4H2O]" unit=µM measured_result=17.5
compound="O.O.O.O.O.O=C([O-])c1ccc(C(=O)[O-])cc1.[Mn+2].c1cnc2c(c1)ccc1cccnc12.c1cnc2c(c1)ccc1cccnc12 [compound 9, [Mn(tereph)(phen)2]·5H2O]" unit=µM measured_result=70

---

System: G. mellonella larvae
Experiment Summary: in vivo toxicity in Galleria mellonella larvae
Stated Conditions: 72 h post-injection; 20 μg per larvae (66.67 mg/kg)
As shown below, each of these compounds has a reported % Mortality value.
Measured Metric: % Mortality (%)

compound="O.O.O.O.O.O.O.O.O.O.O.O.O.O.O.O.O=C([O-])c1cccc(C(=O)[O-])c1.O=C([O-])c1cccc(C(=O)[O-])c1.[Mn+2].[Mn+2].c1cnc2c(c1)ccc1cccnc12.c1cnc2c(c1)ccc1cccnc12.c1cnc2c(c1)ccc1cccnc12.c1cnc2c(c1)ccc1cccnc12.c1cnc2c(c1)ccc1cccnc12 [compound 8, {[Mn(phen)2(H2O)2]}2(isoph)2(phen)·12H2O]" measured_result=80
compound="O.O.O.O.O.O=C([O-])c1ccc(C(=O)[O-])cc1.[Mn+2].c1cnc2c(c1)ccc1cccnc12.c1cnc2c(c1)ccc1cccnc12 [compound 9, [Mn(tereph)(phen)2]·5H2O]" measured_result=80
compound="c1cnc2c(c1)ccc1cccnc12 [phen, 1,10-phenanthroline, reference compound]" measured_result=80
compound="O.O.O=C([O-])c1ccccc1C(=O)[O-].[Mn+2].c1cnc2c(c1)ccc1cccnc12 [compound 5, [Mn(ph)(phen)(H2O)2]]" measured_result=80
compound="O.O.O.O.O.O=C([O-])c1ccccc1C(=O)[O-].[Mn+2].c1cnc2c(c1)ccc1cccnc12.c1cnc2c(c1)ccc1cccnc12 [compound 6, [Mn(ph)(phen)2(H2O)]·4H2O]" measured_result=80
compound="O.O.O.O.O=C([O-])c1cccc(C(=O)[O-])c1.O=C([O-])c1cccc(C(=O)[O-])c1.[Mn+2].[Mn+2].c1cnc2c(c1)ccc1cccnc12.c1cnc2c(c1)ccc1cccnc12.c1cnc2c(c1)ccc1cccnc12 [compound 7, [Mn2(isoph)2(phen)3]·4H2O]" measured_result=60

---

System: M. tuberculosis H37Rv (ATCC 27294)
Experiment Summary: resazurin microtiter assay, MIC against M. tuberculosis H37Rv
Assay type: cell-based, Mycobacterium tuberculosis
Stated Conditions: 7 days 37°C, 90% inhibition of growth, read-out: MIC90
Threshold 2 µM: MIC90 strictly smaller gives T, otherwise F.

molecule="O.O.O.O.O.O.O.O.O.O.O.O.O.O.O.O.O=C([O-])c1cccc(C(=O)[O-])c1.O=C([O-])c1cccc(C(=O)[O-])c1.[Mn+2].[Mn+2].c1cnc2c(c1)ccc1cccnc12.c1cnc2c(c1)ccc1cccnc12.c1cnc2c(c1)ccc1cccnc12.c1cnc2c(c1)ccc1cccnc12.c1cnc2c(c1)ccc1cccnc12 [compound 8, {[Mn(phen)2(H2O)2]}2(isoph)2(phen)·12H2O]" assayed_system="M. tuberculosis H37Rv (ATCC 27294)" class_assignment=T
molecule="O.O.O.O.O=C([O-])c1cccc(C(=O)[O-])c1.O=C([O-])c1cccc(C(=O)[O-])c1.[Mn+2].[Mn+2].c1cnc2c(c1)ccc1cccnc12.c1cnc2c(c1)ccc1cccnc12.c1cnc2c(c1)ccc1cccnc12 [compound 7, [Mn2(isoph)2(phen)3]·4H2O]" assayed_system="M. tuberculosis H37Rv (ATCC 27294)" class_assignment=T
molecule="O.O.O.O.O.O=C([O-])c1ccccc1C(=O)[O-].[Mn+2].c1cnc2c(c1)ccc1cccnc12.c1cnc2c(c1)ccc1cccnc12 [compound 6, [Mn(ph)(phen)2(H2O)]·4H2O]" assayed_system="M. tuberculosis H37Rv (ATCC 27294)" class_assignment=F
molecule="O.O.O.O.O.O=C([O-])c1ccc(C(=O)[O-])cc1.[Mn+2].c1cnc2c(c1)ccc1cccnc12.c1cnc2c(c1)ccc1cccnc12 [compound 9, [Mn(tereph)(phen)2]·5H2O]" assayed_system="M. tuberculosis H37Rv (ATCC 27294)" class_assignment=F
molecule="O.O.O=C([O-])c1ccccc1C(=O)[O-].[Mn+2].c1cnc2c(c1)ccc1cccnc12 [compound 5, [Mn(ph)(phen)(H2O)2]]" assayed_system="M. tuberculosis H37Rv (ATCC 27294)" class_assignment=T

---

As shown below, each of these compounds has a reported % Mortality value.
Tested on: G. mellonella larvae
Experiment Summary: in vivo toxicity in Galleria mellonella larvae
Stated Conditions: 72 h post-injection; 10 μg per larvae (33.33 mg/kg)
Measured Metric: % Mortality (%)

compound="O.O.O.O.O.O.O.O.O.O.O.O.O.O.O.O.O=C([O-])c1cccc(C(=O)[O-])c1.O=C([O-])c1cccc(C(=O)[O-])c1.[Mn+2].[Mn+2].c1cnc2c(c1)ccc1cccnc12.c1cnc2c(c1)ccc1cccnc12.c1cnc2c(c1)ccc1cccnc12.c1cnc2c(c1)ccc1cccnc12.c1cnc2c(c1)ccc1cccnc12 [compound 8, {[Mn(phen)2(H2O)2]}2(isoph)2(phen)·12H2O]" measured_result=0
compound="O.O.O.O.O=C([O-])c1cccc(C(=O)[O-])c1.O=C([O-])c1cccc(C(=O)[O-])c1.[Mn+2].[Mn+2].c1cnc2c(c1)ccc1cccnc12.c1cnc2c(c1)ccc1cccnc12.c1cnc2c(c1)ccc1cccnc12 [compound 7, [Mn2(isoph)2(phen)3]·4H2O]" measured_result=0
